Hi there, I'd appreciate the recorded soluble fraction (log2) for every entry that follows.
assay: soluble fraction after stress (log2 fold change); higher = more stays soluble; pooled small domains, quantitative proteomics; conditions: stress: pH 4
When you answer, write just the number.

Query string: Give the reported value of soluble fraction (log2) for this record: "HMNGDYFEYRYAVNGSRSTPPSLSKTSRNPSGWSTTVPTVGNLQYLWFTVAKINGETNSLIQNWSTPARQT"
Result string: 0.143

Query string: Answer with the recorded soluble fraction (log2) for the sequence listed here: "HMNPGNTESFPVYQKRLGEIIQTLAGKKGQDINSPEVKELVGEYDFLTKQMFQLPDATSMVMEIATAYRN"
Result string: -0.224

Query string: Hello, please tell me recorded soluble fraction (log2) for this one: "HMQNFLSITSKEKIDIGNFQLISFKFENNLYDYVISGNKSELLIFQEKTIENNNENIEKITSNF"
Result string: -0.847

Query string: Fill in reported soluble fraction (log2) for this entry: "HMISKAQLFSEEELTELYRATGYQLENDPEIHREQFEALQAVRAKIEYAVPDVQEKLEQEQNLGQQ"
Result string: -1

Query string: Provide one value: measured soluble fraction (log2) of "HMGEDSEPVQVPDVTGQPLWEARRTLSSMGLKVLDDGGSGSVTAQMPSAGATLRNGGQMMLYTYDEALPE"
Result string: 0.033

Query string: Provide soluble fraction (log2) value for the following sequence: "HMDRMINYSPIVAKVPQDDYTTKVYNIPIYSELTVVDKISEPEPLIAPIYRFKYITPEDEEIEFDIPV"
Result string: -0.39

Query string: Identify measured soluble fraction (log2) corresponding to "HMDEETVALQKAIHSLPPKQQAVFNMRYYDEMSFREIADANETTESSAKANYHFAKAKIIEQMKR"
Result string: 0.166

Query string: For the sequence "HMESDRVAHVVAPGETLFSISGKYGIGMGELVAANPVLESRPPRTGDTLLIRLPENPLPAETDAETLS" , report soluble fraction (log2).
Result string: -0.858

Query string: Name the recorded soluble fraction (log2) of the item "HMDLKHNQITMRELLRNKQAYLLLYKEFPMFMTPAILQNIRPLTLQQIIQMVRPYISRPKLNMLLEQLENI" in your answer.
Result string: 0.22

Query string: Specify measured soluble fraction (log2) for "HMHGEAVVVPNVKGLPMRQAENEIYKQSLKAVAIDSSYVKGMPPGAILEQNPAGGSKVKKGRTVYLTINMD" .
Result string: 0.0278

Query string: Look up and report measured soluble fraction (log2) for this entry: "HMGYKDIDKLSGVDLAIYRFIVEHDEQIPYMRVRELARGAHVSNSSVMRFIRKIGYDSFPEFKVSLRS"
Result string: -0.322

Query string: Answer with the recorded soluble fraction (log2) for the sequence listed here: "HMQDEREEIAVEDVVGMPLWQARKVIADQGFRVLDDGAGDIVIAQMPSGGGKLIEGGQVMLYTYTD"
Result string: -0.201

Query string: Give soluble fraction (log2) for "HMKKAENEKLNIPYDVTEFLASSIKDDIRMMEGAMVKLLALSSLTKQDITQSLAKRVIQDVLGSSA"
Result string: -0.451

Query string: Kindly indicate its recorded soluble fraction (log2). Item: "HMSPDTREAILAAARTAFARDGYQTSLRGIARDAGVDPALVHHYFPDRATLFAKAVIESTAG"
Result string: -0.047

Query string: Quickly give me recorded soluble fraction (log2) for "HMGVTGYPNPTREHITWDDARRIEVWNAYGVPVADLRFARGVLDVAGWPVGTYVARIDGGRSVRFVVI"
Result string: -0.663

Query string: Read off the recorded soluble fraction (log2) for "HMDFGMPEELQKKLDKMPALKAAFEALTPGRQRGYIFYFSQPKQSKTRELRIEKSIEQIMNGKGLND"
Result string: 0.199

Query string: Give soluble fraction (log2) for "HMVEMIGLQMVGKSGIASTVLRPSGKVRIDGVVYDAVSEDGFIEKGQAVKVLRYETGQVYVEKL"
Result string: 0.0132

src = the domain aggregation screens of Martell et al. (2025)
